Values from PubChem BioAssay (NCI)

test system: HT29 colon; assay: NCI-60 one-dose screen, 48 h; settings: 10 µM unless noted
This is part of a sample that, as a whole, favours compounds with a hit. Of some 83,000 tested, about 20% had one in any assay. Activity calls are given as the source filed them. Rule for the calls: active = growth percent below 10; inactive = the rest.
Your response should consist of one outcome taken from active, inactive

Here are 3 compounds together with their reported answers.
> print(dat)
                                   compound  tested.system  group.label
1  CCCCOc1nc2c(C)cccc2cc1C1CNC(=O)c2ccccc2N1 (centres undefined)     HT29 colon     inactive
2          Nc1ccc(S(=O)(=O)c2ccc(Cl)cc2)cc1     HT29 colon     inactive
3  O=S(=O)(NCCCNc1cc(-c2cn(-c3ccccc3)nc2-c2cccc(O)c2)ccn1)c1ccc(C(F)(F)F)cc1     HT29 colon       active

Call for entry N#Cc1ncc(-c2ccc(F)c(F)c2F)c(NC2CCCCCC2)n1 :
inactive

Short answer needed: outcome of this test for CCN(CC)c1cc(/C=C/c2ccc(OC)c(OC)c2)nc2cc(F)c(F)cc12 ?
inactive

So what was the verdict on COc1ccc(C2SCC(=O)N2NC(=O)c2ccc(NC(=O)c3ccccn3)cc2)cc1OC (centres undefined) in this test?
inactive

Query: recorded result category for CC(=O)Nc1ccc(S(=O)(=O)N2C(=O)CCC2C(=O)Nc2ccccc2)cc1 (centres undefined) in this test
inactive

Could you please tell me the result logged for Cc1cc(Cl)ccc1OC(C)C(=O)Nc1nnc(C2CC2)s1 (centres undefined) in this assay?
inactive

Per the records of this test, what outcome belongs to Cc1cc(C)c2c(=O)[nH]c(SCC(=O)Nc3cccc(S(=O)(=O)N(C)C)c3)nc2n1 ?
inactive

What was the test verdict on C/C(=C\c1csc(C)n1)[C@@H]1C[C@@H]2O[C@]2(C)CCC[C@H](C)[C@H](O)[C@@H](C)C(=O)C(C)(C)[C@@H](O)CC(=O)N1 ?
active

Given Nc1c(C(=O)Nc2ccccc2)sc2nc3c(cc12)CCCCC3 , state the outcome it received in this test.
active

====

tested on: MOLT-4 leukemia; assay: NCI-60 one-dose screen, 48 h; conditions: 10 µM unless noted
This is part of a sample that, as a whole, favours compounds with a hit. Of some 83,000 tested, about 20% had one in any assay. Activity calls are given as the source filed them. The calls were made as follows: active = growth percent below 10; inactive = the rest.
Respond using exactly one of the listed classes: yes for active, no for inactive

> print(dat)
                                   compound  group.label
1  c1ccc(CCn2nnc3c(Nc4ccc(N5CCOCC5)cc4)ncnc32)cc1           no
2  CCCCCCCC/C=C\CCCCCCCCOc1ccccc1CCOP(=O)(O)OCC[N+](C)(C)C           no
3  COc1cc(NC(=O)CSc2nc3ccc(C)cc3c(=O)n2-c2ccccc2)cc(OC)c1OC           no
4  CC1Cc2c(N(C)C)ncnc2N(C)c2ccc(O)cc21 (stereo not given)           no

Query: recorded result category for CCOC(=O)c1cc(/C(=N\O)c2cc(OC)c(OC)c(OC)c2)n2cc(C)cc(C)c12 in this test
yes

====

test system: MDA-MB-231 breast; assay: NCI-60 one-dose screen, 48 h (100 = growth as untreated, 0 = no growth, -100 = all killed); details: 10 µM unless noted
This is part of a sample that, as a whole, favours compounds with a hit. Of some 83,000 tested, about 20% had one in any assay.
One threshold, 70%, splits the recorded growth values: lower ones are condition met, equal or higher ones are condition not met.

For orientation, consider the following solved cases.
Compound	Tested system	Group label
CCn1cc(C(=O)O)c(=O)c2cc(F)c(N3CCN(S(=O)(=O)c4ccc(Cl)cc4Cl)CC3)cc21	MDA-MB-231 breast	condition met
CCN(Cc1ccc(CN(CC)C(=O)C(Cl)(Cl)Cl)cc1)C(=O)C(Cl)(Cl)Cl	MDA-MB-231 breast	condition not met

Lab log: compare recorded growth with 70%; is it strictly lower for Clc1ccc2c(c1)NC1(CCSc3ccccc31)n1nccc1-2 (centres undefined) ?
condition not met

In the record for COc1cccc(/C=C2\SC(N3CCN(c4ccccn4)CC3)=NC2=O)c1 , is growth less than 70%?
condition not met

Is the reported growth for COc1cccc(-n2cc(-c3nc(Cl)c4ccccc4n3)nn2)c1 strictly below 70%?
condition not met

Does this compound meet the criterion growth < 70%? O=C1OC(c2ccccc2)=N/C1=C\c1ccc([N+](=O)[O-])cc1
condition not met

Does the reported growth of the following compound sit strictly below 70%? C=CCn1c(C)nc2ccc(Nc3nc(Nc4ccc(F)cc4)nc4ccccc34)cc21
condition not met

Given the entry COC(=O)[C@H]1[C@H](OC)[C@@H](OC(=O)/C=C/c2ccncc2)CC2CN3CCc4c([nH]c5cc(OC)ccc45)[C@@H]3C[C@@H]21 (some centres undefined) , would its reported growth be below 70%?
condition met

Lab note: growth threshold 70%. Does this compound come in strictly under it? Nc1cccc2c1CN(C1CCC(=O)NC1=O)C2=O (centres undefined)
condition not met
